These entries and their values trace back to patent US12378224B2.

Record type: IC50 measurement. Applies to: human MER (528-end) (Homo sapiens (Human), UniProt Q12866)
value type: IC50

>>> print(df.to_string())
                                 mol_smiles  observed_measurement
0  Cn1cc(-c2cnc(N)c(C(=O)N[C@@H]3CCN(C(=O)OCc4ccccc4)C3)c2)cn1             > 1000 nM
1  Nc1ncc(-c2cnn(C3CCNCC3)c2)cc1C(=O)N[C@@H]1CCN(C(=O)Nc2cc(Cl)cc(Cl)c2)C1          10 to 100 nM
2  Cn1cc(-c2cnc(N)c(C(=O)N[C@@H]3CCN(C(=O)c4ccc(-c5cccc(-c6nnn[nH]6)c5)cc4)C3)c2)cn1        100 to 1000 nM
3  CC(C)(c1ccc(-c2cnc(N)c(C(=O)N[C@@H]3CCN(C(=O)c4ccc(-c5ccccc5)cc4)C3)c2)cc1)N1CCN(CCO)CC1          10 to 100 nM
4  Cn1cc(-c2cnc(N)c(C(=O)N[C@H]3CCN(C(=O)c4cccc(-c5ccccc5)c4)C3)c2)cn1             > 1000 nM
5  Cc1cc(C)cc(OC(=O)N2CC[C@@H](NC(=O)c3cc(-c4cnn(C)c4)cnc3N)C2)c1             > 1000 nM
6  Cn1cc(-c2cnc(N)c(C(=O)N[C@@H]3CCN(C(=O)c4ccc(-c5ccc(C(N)=O)c(F)c5)cc4)C3)c2)cn1        100 to 1000 nM
